TARGET: Neu5Ac(a2-3)Gal(b1-4)[Fuc(a1-3)]GlcNAc(b1-3)Gal
ASSAY_COMMENT: glycan array binding signal (z-score within array); higher = stronger binding
STUDY_CONDITIONS: glycan notation: IUPAC condensed, linker removed
The full list was thinned out, with the strongest signals kept by preference.
PROPERTY_NAME: glycan array binding signal (z-score)

Challenge: In one line, give reported glycan array binding signal (z-score) of the entry OGAN (protein) MVQKESQATLEERESELSSNPAASAGASLEPPAAPAPGEDNPAGAGGAAVAGAAGGARRFLCGVVEGFYGRPWVMEQRKELFRRLQKWELNTYLYAPKDDYKHRMFWREMYSVEEAEQLMTLISAAREYEIEFIYAISPGLDITFSNPKEVSTLKRKLDQVSQFGCRSFALLFNDIDHNMCAADKEVFSSFAHAQVSITNEIYQYLGEPETFLFCPTEYCGTFCYPNVSQSPYLRTVGEKLLPGIEVLWTGPKVVSKEIPVESIEEVSKIIKRAPVIWDNIHANDYDQKRLFLGPYKGRSTELIPRLKGVLTNPNCEFEANYVAIHTLATWYKSNMNGVRKDVVMTDSEDSTVSIQIKLENEGSDEDIETDVLYSPQMALKLALTEWLQEFGVPHQY .
Response given: -0.094
